# assayed.system: recombinant human PAD2 (human, UniProt Q9Y2J8 1-665)
# Sequence (Q9Y2J8 whole entry): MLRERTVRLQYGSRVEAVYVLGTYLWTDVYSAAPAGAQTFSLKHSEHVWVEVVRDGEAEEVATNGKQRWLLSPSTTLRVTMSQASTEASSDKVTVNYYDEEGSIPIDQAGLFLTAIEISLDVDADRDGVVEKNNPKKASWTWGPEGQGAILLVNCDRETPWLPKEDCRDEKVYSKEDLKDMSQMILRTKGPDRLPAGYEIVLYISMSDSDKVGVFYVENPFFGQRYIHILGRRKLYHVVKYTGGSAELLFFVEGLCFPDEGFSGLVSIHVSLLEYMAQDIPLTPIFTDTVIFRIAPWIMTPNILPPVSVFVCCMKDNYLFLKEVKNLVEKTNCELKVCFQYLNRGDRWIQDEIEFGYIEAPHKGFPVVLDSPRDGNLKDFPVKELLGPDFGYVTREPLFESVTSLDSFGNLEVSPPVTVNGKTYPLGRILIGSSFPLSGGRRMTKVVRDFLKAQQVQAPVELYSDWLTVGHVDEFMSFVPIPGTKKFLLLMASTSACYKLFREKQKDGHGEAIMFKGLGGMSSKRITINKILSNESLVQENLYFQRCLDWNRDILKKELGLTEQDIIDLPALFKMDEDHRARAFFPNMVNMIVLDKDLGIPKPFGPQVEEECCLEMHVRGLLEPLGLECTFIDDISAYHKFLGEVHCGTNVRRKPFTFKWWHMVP
# assay.method.text: cell-based or functional assay
Numbered stars: 1 amine (or outer) side, 2 acyl side, 3 side chain; on linkers, the order of the positions; unused ones are H or OH. Square brackets hold non-standard residues; d marks the D form. Orn(CA) = ornithine chloroamidine, O(CA), N=C(CCl)NCCC[C@H](N[*:1])C(=O)[*:2]; Orn(fluoroacetimidoyl) = N=C(CF)NCCC[C@H](N)C(=O)O
readout.name: conversion of 0708-30 by PAD2, 10 µM inhibitor (%)
Numbers only; they are read as %.

Exam item: Give recorded conversion of 0708-30 by PAD2, 10 µM inhibitor. Ac-FFDSKHFD[Orn(CA)]EWIWSD-NH2 (SMILES CC[C@H](C)[C@H](NC(=O)[C@H](Cc1c[nH]c2ccccc12)NC(=O)[C@H](CCC(=O)O)NC(=O)[C@H](CCCNC(=N)CCl)NC(=O)[C@H](CC(=O)O)NC(=O)[C@H](Cc1ccccc1)NC(=O)[C@H](Cc1c[nH]cn1)NC(=O)[C@H](CCCCN)NC(=O)[C@H](CO)NC(=O)[C@H](CC(=O)O)NC(=O)[C@H](Cc1ccccc1)NC(=O)[C@H](Cc1ccccc1)NC(C)=O)C(=O)N[C@@H](Cc1c[nH]c2ccccc12)C(=O)N[C@@H](CO)C(=O)N[C@@H](CC(=O)O)C(N)=O) [0741-01CA]
Marked response: 69

Further cases:
Exam item: Give recorded conversion of 0708-30 by PAD2, 10 µM inhibitor. Ac-FFDSHKLH[Orn(CA)]EWMWSD-NH2 (SMILES CSCC[C@H](NC(=O)[C@H](Cc1c[nH]c2ccccc12)NC(=O)[C@H](CCC(=O)O)NC(=O)[C@H](CCCNC(=N)CCl)NC(=O)[C@H](Cc1c[nH]cn1)NC(=O)[C@H](CC(C)C)NC(=O)[C@H](CCCCN)NC(=O)[C@H](Cc1c[nH]cn1)NC(=O)[C@H](CO)NC(=O)[C@H](CC(=O)O)NC(=O)[C@H](Cc1ccccc1)NC(=O)[C@H](Cc1ccccc1)NC(C)=O)C(=O)N[C@@H](Cc1c[nH]c2ccccc12)C(=O)N[C@@H](CO)C(=O)N[C@@H](CC(=O)O)C(N)=O) [0741-04CA]
Marked response: 69

Exam item: Give recorded conversion of 0708-30 by PAD2, 10 µM inhibitor. Ac-FFDSHKWH[Orn(CA)]DFFYSD-NH2 (SMILES CC(=O)N[C@@H](Cc1ccccc1)C(=O)N[C@@H](Cc1ccccc1)C(=O)N[C@@H](CC(=O)O)C(=O)N[C@@H](CO)C(=O)N[C@@H](Cc1c[nH]cn1)C(=O)N[C@@H](CCCCN)C(=O)N[C@@H](Cc1c[nH]c2ccccc12)C(=O)N[C@@H](Cc1c[nH]cn1)C(=O)N[C@@H](CCCNC(=N)CCl)C(=O)N[C@@H](CC(=O)O)C(=O)N[C@@H](Cc1ccccc1)C(=O)N[C@@H](Cc1ccccc1)C(=O)N[C@@H](Cc1ccc(O)cc1)C(=O)N[C@@H](CO)C(=O)N[C@@H](CC(=O)O)C(N)=O) [0741-02CA]
Marked response: 67

Exam item: Give recorded conversion of 0708-30 by PAD2, 10 µM inhibitor. Ac-FFDSHKLH[Orn(fluoroacetimidoyl)]EWMWSD-NH2 (SMILES CSCC[C@H](NC(=O)[C@H](Cc1c[nH]c2ccccc12)NC(=O)[C@H](CCC(=O)O)NC(=O)[C@H](CCCNC(=N)CF)NC(=O)[C@H](Cc1c[nH]cn1)NC(=O)[C@H](CC(C)C)NC(=O)[C@H](CCCCN)NC(=O)[C@H](Cc1c[nH]cn1)NC(=O)[C@H](CO)NC(=O)[C@H](CC(=O)O)NC(=O)[C@H](Cc1ccccc1)NC(=O)[C@H](Cc1ccccc1)NC(C)=O)C(=O)N[C@@H](Cc1c[nH]c2ccccc12)C(=O)N[C@@H](CO)C(=O)N[C@@H](CC(=O)O)C(N)=O) [0741-04FA]
Marked response: 62

Hello, the source for this data is patent US20110142868A1, in case you need it.
